# measurement_target: androgen receptor (AR) splicing variant AR-v7 (Homo sapiens, UniProt P10275)
# Construct: The degradation activity of compounds on AR-v7 in 22RV1 cells; host or cells: 22RV1 cells
# Sequence (P10275 1-644 isoform P10275-3): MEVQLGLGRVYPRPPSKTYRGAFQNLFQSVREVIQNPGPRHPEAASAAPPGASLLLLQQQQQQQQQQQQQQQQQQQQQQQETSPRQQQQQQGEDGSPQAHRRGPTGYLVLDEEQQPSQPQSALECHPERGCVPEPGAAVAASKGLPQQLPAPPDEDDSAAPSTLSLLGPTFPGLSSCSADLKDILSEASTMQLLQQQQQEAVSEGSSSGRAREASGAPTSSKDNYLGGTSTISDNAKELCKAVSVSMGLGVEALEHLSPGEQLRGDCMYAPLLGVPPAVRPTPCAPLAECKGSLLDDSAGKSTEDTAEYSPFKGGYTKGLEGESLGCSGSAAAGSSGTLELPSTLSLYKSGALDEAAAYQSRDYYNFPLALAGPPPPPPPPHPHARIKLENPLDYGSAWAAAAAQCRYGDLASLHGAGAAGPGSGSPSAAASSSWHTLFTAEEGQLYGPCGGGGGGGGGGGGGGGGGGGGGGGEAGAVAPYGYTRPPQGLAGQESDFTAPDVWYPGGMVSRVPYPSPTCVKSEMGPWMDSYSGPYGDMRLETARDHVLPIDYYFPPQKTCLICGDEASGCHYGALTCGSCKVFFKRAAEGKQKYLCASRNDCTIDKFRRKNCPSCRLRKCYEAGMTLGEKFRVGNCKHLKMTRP
# method_summary: Degradation activity on androgen receptor splicing variant AR-v7 in 22RV1 cells (ELISA)
# Type: cell-based
# condition_description: AR-v7 degradation in 22RV1 cells, 48 h, class symbols
property_measured: DC50

Use these answered entries as a reference point.
# compound, measurement_target, DC50
records = [
    ("CNC(=O)c1nccc(COc2ccc(C(C)(C)c3ccc(O[C@H]4C[C@@H](Nc5ccc6c(c5)C(=O)N(C5CCC(=O)NC5=O)C6=O)C4)cc3)cc2)n1 (stereo partly shown) [Example 187]", "androgen receptor (AR) splicing variant AR-v7 (Homo sapiens, UniProt P10275)", "< 10 nM"),
    ("CC(C)(c1ccc(OCc2ccnc(-c3nnco3)n2)cc1)c1ccc(O[C@H]2C[C@@H](Nc3ccc4c(c3)C(=O)N(C3CCC(=O)NC3=O)C4=O)C2)cc1 (stereo partly shown) [Example 464]", "androgen receptor (AR) splicing variant AR-v7 (Homo sapiens, UniProt P10275)", "< 10 nM"),
    ("CC(C)(c1ccc(Oc2ccc(-n3cccn3)nc2)cc1)c1ccc(O[C@H]2C[C@@H](Nc3ccc4c(c3)C(=O)N(C3CCC(=O)NC3=O)C4=O)C2)cc1 (stereo partly shown) [Example 542]", "androgen receptor (AR) splicing variant AR-v7 (Homo sapiens, UniProt P10275)", "11 to 100 nM"),
    ("CC(=O)c1cc(COc2ccc(C(C)(C)c3ccc(OCCCCCCCCOCCCCNc4cccc5c4C(=O)N(C4CCC(=O)NC4=O)C5=O)cc3)cc2)ccn1 (stereo not shown) [Example 348]", "androgen receptor (AR) splicing variant AR-v7 (Homo sapiens, UniProt P10275)", "1000 to 5000 nM"),
    ("CC(C)(c1ccc(OCc2cncc(N3CC4(COC4)C3)n2)cc1)c1ccc(O[C@H]2C[C@H](Nc3ccc4c(c3)C(=O)N(C3CCC(=O)NC3=O)C4=O)C2)cc1 (stereo partly shown) [Example 539]", "androgen receptor (AR) splicing variant AR-v7 (Homo sapiens, UniProt P10275)", "< 10 nM"),
]

The measured DC50 associated with CC(=O)c1ncc(Oc2ccc(C(C)c3ccc(O[C@H]4C[C@H](Nc5ccc6c(c5)C(=O)N(C5CCC(=O)NC5=O)C6=O)C4)cn3)cc2)cn1 (stereo partly shown) [Example 220] reads < 10 nM

The measured DC50 associated with Cn1cc(-c2nccc(COc3ccc(C(C)(C)c4ccc(O[C@H]5C[C@@H](Nc6ccc7c(c6)C(=O)N(C6CCC(=O)NC6=O)C7=O)C5)cc4)cc3)n2)cn1 (stereo partly shown) [Example 270] reads < 10 nM

The measured DC50 associated with CC(C)(c1ccc(OCCCNc2ccc3c(c2)C(=O)N(C2CCC(=O)NC2=O)C3=O)cc1)c1ccc(OCc2ccnc(N3CC4(COC4)C3)n2)cc1 (stereo not shown) [Example 73] reads 11 to 100 nM

The measured DC50 associated with CC(C)(c1ccc(Oc2ccnc(-n3ccnn3)n2)cc1)c1ccc(O[C@H]2C[C@H](Nc3ccc4c(c3)C(=O)N(C3CCC(=O)NC3=O)C4=O)C2)cc1 (stereo partly shown) [Example 471] reads < 10 nM

The measured DC50 associated with Cc1nc(-c2ncc(Oc3ccc(C4(c5ccc(O[C@H]6C[C@H](Nc7ccc8c(c7)C(=O)N(C7CCC(=O)NC7=O)C8=O)C6)cc5)CC4)cc3)cn2)no1 (stereo partly shown) [Example 212] reads < 10 nM

These entries and their values trace back to patent US20250051347A1.
